target: P2X purinoceptor 7 (Homo sapiens)
Sequence (Q99572 whole entry): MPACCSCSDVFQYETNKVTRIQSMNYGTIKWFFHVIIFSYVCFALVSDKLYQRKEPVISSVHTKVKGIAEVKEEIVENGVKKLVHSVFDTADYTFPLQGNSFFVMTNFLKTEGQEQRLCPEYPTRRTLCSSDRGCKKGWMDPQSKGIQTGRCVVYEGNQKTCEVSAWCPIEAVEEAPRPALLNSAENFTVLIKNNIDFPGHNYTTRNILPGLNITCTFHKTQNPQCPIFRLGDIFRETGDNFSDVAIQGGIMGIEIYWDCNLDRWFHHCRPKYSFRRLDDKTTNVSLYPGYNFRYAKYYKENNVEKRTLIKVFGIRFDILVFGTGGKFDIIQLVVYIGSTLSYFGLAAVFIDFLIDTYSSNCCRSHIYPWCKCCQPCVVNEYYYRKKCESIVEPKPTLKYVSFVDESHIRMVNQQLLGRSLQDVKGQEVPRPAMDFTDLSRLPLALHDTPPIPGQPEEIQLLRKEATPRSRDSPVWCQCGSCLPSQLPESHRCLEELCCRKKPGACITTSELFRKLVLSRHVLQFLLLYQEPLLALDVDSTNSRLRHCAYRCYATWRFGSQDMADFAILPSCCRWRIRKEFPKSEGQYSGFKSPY
assay_text: Antagonist activity at human P2X7 receptor expressed in HEK293 cells assessed as inhibition of BzATP-induced EtBr uptake measured after 2 hrs by fluorescence analysis
Type: cell-based
recorded_endpoint: IC50 (nM)
Give bare numbers, in nM.

Below are worked cases with known answers.
[[record]]
smiles_structure = "O=C(c1ccc(Cl)c(C(F)(F)F)c1)N1CCC(n2cncc2-c2ccc(OS(=O)(=O)c3cccc4ccccc34)cc2)CC1"
result_unit = "nM"
val = 3520

[[record]]
smiles_structure = "CC(C)(O)c1ccc(C(=O)N2CCC(n3cncc3-c3ccc(OS(=O)(=O)c4cccc5cnccc45)cc3)CC2)cc1"
result_unit = "nM"
val = 109


Now let's try a different one.
Entry CS(=O)(=O)c1ccc(C(=O)N2CCN(c3cc(=O)[nH]c(=O)n3Cc3ccc(OS(=O)(=O)c4cccc5cnccc45)cc3)CC2)cc1 has what IC50? 44
